Ref: patent US9073855B2

# testTarget: GST-Bcl-XL (Homo sapiens, UniProt Q07817)
# Sequence (Q07817 whole entry): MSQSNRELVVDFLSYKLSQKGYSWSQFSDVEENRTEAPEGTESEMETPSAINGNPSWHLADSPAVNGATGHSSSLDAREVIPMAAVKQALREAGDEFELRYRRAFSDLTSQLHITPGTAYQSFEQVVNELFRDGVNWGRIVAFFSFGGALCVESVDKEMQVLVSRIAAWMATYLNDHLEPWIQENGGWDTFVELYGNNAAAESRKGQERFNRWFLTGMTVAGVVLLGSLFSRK
# protocolDetails: TR-FRET binding assay, GST-Bcl-XL with F-Bak peptide probe
# experimentalParameters: TR-FRET Binding Affinity
Could you please report measured pKi for the items listed next?
pKi is defined as minus the log10 of a concentration measured in mol/L.

Inquiry: Return pKi measured with GST-Bcl-XL (Homo sapiens, UniProt Q07817) given this compound: CO[C@H]1CC[C@H](CNc2ccc(S(=O)(=O)NC(=O)c3ccc(N4CCN(CC5=C(c6ccc(Cl)cc6)CC(C)(C)CC5)CC4)cc3Oc3cccc4[nH]cnc34)cc2[N+](=O)[O-])CC1 [Example 440]
Reply text: 7.34

Inquiry: Return pKi measured with GST-Bcl-XL (Homo sapiens, UniProt Q07817) given this compound: CC1(C)CC(c2ccc(Cl)cc2)=C(CN2CCN(c3ccc(C(=O)NS(=O)(=O)c4cnc(OCC5(F)CCOCC5)c(Cl)c4)c(Oc4cccc5[nH]ncc45)c3)CC2)CO1 [Example 465]
Reply text: 7.43

Inquiry: Return pKi measured with GST-Bcl-XL (Homo sapiens, UniProt Q07817) given this compound: COCCOCCN1CCO[C@H](CNc2ccc(S(=O)(=O)NC(=O)c3ccc(N4CCN(CC5=C(c6ccc(Cl)cc6)CC(C)(C)CC5)CC4)cc3Oc3cccc4[nH]cnc34)cc2[N+](=O)[O-])C1 [Example 455]
Reply text: 9.21

Inquiry: Return pKi measured with GST-Bcl-XL (Homo sapiens, UniProt Q07817) given this compound: CC1(C)CCC(CN2CCN(c3ccc(C(=O)NS(=O)(=O)c4cnc(NC5CCN(C6CC6)CC5)c(Cl)c4)c(Oc4cccc5[nH]ncc45)c3)CC2)=C(c2ccc(Cl)cc2)C1 [Example 448]
Reply text: 7.84

Inquiry: Return pKi measured with GST-Bcl-XL (Homo sapiens, UniProt Q07817) given this compound: CC1(C)CCC(CN2CCN(c3ccc(C(=O)NS(=O)(=O)c4ccc(NCC5COCCO5)c([N+](=O)[O-])c4)c(Oc4cccc5[nH]cnc45)c3)CC2)=C(c2ccc(Cl)cc2)C1 (centres unmarked) [Example 450]
Reply text: 7.49

###

# testTarget: GST-Bcl-XL (Homo sapiens)
# protocolDetails: TR-FRET binding assay, GST-Bcl-XL with F-Bak peptide probe
# experimentalParameters: TR-FRET Binding Affinity, GST-Bcl-XL, F-Bak peptide probe
testReadout: pKi
pKi is defined as minus the log10 of a concentration measured in mol/L.

Inquiry: Dear colleague, I am looking for the recorded pKi of the following molecule: O=C(NS(=O)(=O)c1ccc(NCC2CCOCC2)c([N+](=O)[O-])c1)c1ccc(N2CCN(Cc3ccccc3-c3ccc(Cl)cc3)CC2)cc1Oc1cccc2ccccc12 [Example 34]
Reply text: 7.06

Inquiry: Dear colleague, I am looking for the recorded pKi of the following molecule: CC1(C)CCC(CN2CCN(c3ccc(C(=O)NS(=O)(=O)c4cnc(OCC5(F)CCOCC5)c(C#N)c4)c(Oc4ccc5[nH]ccc5c4)c3)CC2)=C(c2ccc(Cl)cc2)C1 [Example 385]
Reply text: 6.89

Inquiry: Dear colleague, I am looking for the recorded pKi of the following molecule: CC1(C)CCC(CN2CCN(c3ccc(C(=O)NS(=O)(=O)c4cnc(OCC5CCOC5)c(Cl)c4)c(Oc4cccc5[nH]ncc45)c3)CC2)=C(c2ccc(Cl)cc2)C1 (centres unmarked) [Example 420]
Reply text: 7.14

Inquiry: Dear colleague, I am looking for the recorded pKi of the following molecule: O=C(NS(=O)(=O)c1ccc(NCCCN2CCCC2)c([N+](=O)[O-])c1)c1ccc(N2CCN(Cc3cc(OCCN4CCOCC4)ccc3-c3ccc(Cl)cc3)CC2)cc1Oc1ccc2[nH]ccc2c1 [Example 136]
Reply text: 7.21

Inquiry: Dear colleague, I am looking for the recorded pKi of the following molecule: CN1CCN(CCNc2ccc(S(=O)(=O)NC(=O)c3ccc(N4CCN(Cc5ccccc5-c5ccc(Cl)cc5)CC4)cc3Oc3ccccc3)cc2[N+](=O)[O-])CC1 [Example 85]
Reply text: 7.94

Inquiry: Dear colleague, I am looking for the recorded pKi of the following molecule: CC1(C)CCC(CN2CCN(c3ccc(C(=O)NS(=O)(=O)c4ccc(NC5CCN(CCCO)CC5)c([N+](=O)[O-])c4)c(Oc4ccc5[nH]ccc5c4)c3)CC2)=C(c2ccc(Cl)cc2)C1 [Example 197]
Reply text: 8.32

Inquiry: Dear colleague, I am looking for the recorded pKi of the following molecule: CN1CCC(O)(CCNc2ccc(S(=O)(=O)NC(=O)c3ccc(N4CCN(CC5=C(c6ccc(Cl)cc6)CC(C)(C)CC5)CC4)cc3Oc3ccc4[nH]ccc4c3)cc2[N+](=O)[O-])CC1 [Example 211]
Reply text: 8.25

Inquiry: Dear colleague, I am looking for the recorded pKi of the following molecule: CC1(C)CCC(CN2CCN(c3ccc(C(=O)NS(=O)(=O)c4ccc(OC5CCN(C6CCOCC6)CC5)c([N+](=O)[O-])c4)c(Oc4ccc5[nH]ccc5c4)c3)CC2)=C(c2ccc(Cl)cc2)C1 [Example 389]
Reply text: 7.17

Inquiry: Dear colleague, I am looking for the recorded pKi of the following molecule: CC1(C)CCC(CN2CCN(c3ccc(C(=O)NS(=O)(=O)c4ccc(NCCCN5CCOCC5)c([N+](=O)[O-])c4)c(Oc4ccc5[nH]ccc5c4)c3)CC2)=C(c2ccc(Cl)cc2)C1 [Example 52]
Reply text: 7.10
